test target: PRMT5/MEP50 protein complex (Homo sapiens (Human), UniProt O14744)
Sequence (O14744 other isoform, or with tags, fused parts or gaps): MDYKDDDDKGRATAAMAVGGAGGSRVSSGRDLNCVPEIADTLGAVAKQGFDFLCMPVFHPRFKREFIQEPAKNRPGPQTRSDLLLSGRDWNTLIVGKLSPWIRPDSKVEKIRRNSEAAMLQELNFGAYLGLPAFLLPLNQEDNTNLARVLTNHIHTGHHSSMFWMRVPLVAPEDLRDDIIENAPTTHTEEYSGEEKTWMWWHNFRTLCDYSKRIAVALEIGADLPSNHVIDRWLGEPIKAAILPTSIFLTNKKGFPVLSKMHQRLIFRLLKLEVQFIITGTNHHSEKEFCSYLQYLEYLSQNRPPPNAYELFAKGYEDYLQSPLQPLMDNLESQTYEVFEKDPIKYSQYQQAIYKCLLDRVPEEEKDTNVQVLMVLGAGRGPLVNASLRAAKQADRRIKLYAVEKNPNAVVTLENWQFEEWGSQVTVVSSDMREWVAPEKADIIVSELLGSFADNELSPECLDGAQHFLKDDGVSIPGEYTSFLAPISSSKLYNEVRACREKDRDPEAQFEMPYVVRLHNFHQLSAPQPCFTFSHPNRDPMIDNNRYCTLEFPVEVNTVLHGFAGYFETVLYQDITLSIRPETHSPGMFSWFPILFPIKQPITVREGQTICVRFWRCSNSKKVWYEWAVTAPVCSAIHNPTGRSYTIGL
Sequence (Q9BQA1 whole entry partner): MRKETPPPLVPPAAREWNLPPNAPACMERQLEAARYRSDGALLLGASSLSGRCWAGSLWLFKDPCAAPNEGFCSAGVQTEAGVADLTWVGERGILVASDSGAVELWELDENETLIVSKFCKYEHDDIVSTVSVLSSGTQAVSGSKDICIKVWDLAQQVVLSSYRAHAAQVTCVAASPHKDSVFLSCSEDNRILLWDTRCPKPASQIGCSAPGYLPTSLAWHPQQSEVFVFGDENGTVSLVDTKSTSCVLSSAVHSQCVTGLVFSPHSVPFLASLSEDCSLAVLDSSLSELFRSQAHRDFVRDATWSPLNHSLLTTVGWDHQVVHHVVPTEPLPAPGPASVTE
assay comment: PRMT5 biochemical assay (3H-SAM methylation of H4(1-21) peptide, filter plate scintillation)
experimental setup: 10 nM PRMT5/MEP50 complex, 200 nM H4(1-21) peptide, 1 uM SAM, 25 minute incubation at room temperature
property name: pIC50
Conceptually, pIC50 converts a concentration in mol/L into minus its log10.

- Nc1ncnc2c1c(F)cn2[C@@H]1C[C@H](Oc2cc(Cl)cc3c2CNCC3)[C@@H](O)[C@H]1O: 9.00
- Cc1ncnc2c1ccn2[C@@H]1C[C@H](Oc2cccc3ccncc23)[C@@H](O)[C@H]1O: 5.89
- Nc1ncnc2c1c(F)cn2[C@@H]1C[C@H](Oc2cc(Br)cc3c2CNCC3)[C@@H](O)[C@H]1O: 9.00
- CN(c1cc(N)ncn1)[C@@H]1C[C@H]([C@@H](O)c2ccc(F)c(F)c2)[C@@H](O)[C@H]1O: 4.77
- Cc1ncnc2c1ccn2[C@@H]1C[C@H](Oc2cc(OC(C)C)c(F)c3c2CNCC3)[C@@H](O)[C@H]1O: 6.51
- Cc1nc(N)c2c(F)cn([C@@H]3C[C@H](Oc4ccc(F)c5c4CNCC5)[C@@H](O)[C@H]3O)c2n1: 9.00

Next up:
Report pIC50, nothing else, for this compound: "Cc1ncnc2c1ccn2[C@@H]1C[C@H](Oc2ccc(F)cc2C(N)=O)[C@@H](O)[C@H]1O"
4.87
